Molecular target: T1, human vascular endothelial growth factor receptor-2 Fc chimera (KDR-Fc) (human, UniProt P35968 20-764)
T1 construct: range 1-764; also called human VEGFR-2; VEGF-R2-Fc; not shown: human IgG1 Fc
T1 sequence (P35968 20-764 limits assumed, change not shown, form in doubt): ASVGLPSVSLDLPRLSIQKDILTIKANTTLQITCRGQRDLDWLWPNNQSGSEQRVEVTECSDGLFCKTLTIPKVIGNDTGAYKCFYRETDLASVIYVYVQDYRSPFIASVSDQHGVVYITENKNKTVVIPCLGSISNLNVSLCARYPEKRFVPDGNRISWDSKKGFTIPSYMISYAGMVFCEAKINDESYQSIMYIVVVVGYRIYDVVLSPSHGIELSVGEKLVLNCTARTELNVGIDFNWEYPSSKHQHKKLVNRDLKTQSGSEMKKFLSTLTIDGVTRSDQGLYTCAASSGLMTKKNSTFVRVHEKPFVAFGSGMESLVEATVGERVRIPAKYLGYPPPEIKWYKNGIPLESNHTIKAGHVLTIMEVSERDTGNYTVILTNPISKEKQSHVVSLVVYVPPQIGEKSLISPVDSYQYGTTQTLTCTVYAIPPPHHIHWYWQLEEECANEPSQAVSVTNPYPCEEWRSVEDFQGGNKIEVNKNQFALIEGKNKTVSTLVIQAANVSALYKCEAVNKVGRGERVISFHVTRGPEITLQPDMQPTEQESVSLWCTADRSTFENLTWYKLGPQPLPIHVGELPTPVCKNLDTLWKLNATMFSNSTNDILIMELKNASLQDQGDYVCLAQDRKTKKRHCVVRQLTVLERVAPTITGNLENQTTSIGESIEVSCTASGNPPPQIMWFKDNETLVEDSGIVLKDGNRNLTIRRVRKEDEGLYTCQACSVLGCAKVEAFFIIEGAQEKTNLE
Test: radioactive equilibrium binding, 1 nM KDR-Fc
measurement label: Binding to 1 nM KDR, % (%)

Example cases with answers are listed next.
binder	unit annotation	reported value
3′G3 PR4 (designed binder, Del 1-8) EVVAATPTSLLISWRHPHFPTRYYRITYGETGGNSPVQEFTVPLQPPTATISGLKPGVDYTITGYAVTFDQSDHELLTPISINYRT	%	31
K7 (designed binder, Del 1-8) EVVAATPTSLLISWRHPHFPTRYYRITYGETGGNSPVQEFTVPLQPPTATISGLKPGVDYTITGYAVTSGHNDHMLMIPISINYRT	%	40

[I] 3′F12 PR4 (designed binder, Del 1-8) EVVAATPTSLLISWRHPHFPTRYYRITYGETGGNSPVQEFTVPLQPPTATISGLKPGVDYTITGYAVTLSQTDHELLTPISINYRT
[II] K5 (designed binder, Del 1-8) EVVAATPTSLLISWRHPHFPTRYYRITYGETGGNSPVQEFTVPLQPPTATISGLKPGVDYTITGYAVTMGPNDNELLTPISINYRT
Hi there! Just curious which has the higher Binding to 1 nM KDR, % between I and II . Use the label to indicate which entry you chose. II
(II: 47%, I: 17%)

[P] 3′C12 PR4 (designed binder, Del 1-8) EVVAATPTSLLISWRHPHFPTRYYRITYGETGGNSPVQEFTVPLQPPTATISGLKPGVDYTITGYAVTIGPNNHELLTPISINYRT
[Q] 3′D2 PR4 (designed binder, Del 1-8) EVVAATPTSLLISWRHPHFPTRYYRITYGETGGNSPVQEFTVPLQPPTATISGLKPGVDYTITGYAVTVESNGHALFVPISINYRT
Hi there! Just curious which has the higher Binding to 1 nM KDR, % between P and Q . Use the label to indicate which entry you chose. P
